# Tested on: non-growing P. aeruginosa DSM1117
# assay: Dose-dependent killing analysis (CFU spot-plating) of stationary-phase P. aeruginosa
# Assay type: cell-based, Pseudomonas aeruginosa
# condition-description: at 0.5 µM, 24 h treatment
measured-endpoint: reduction of bacterial counts, stationary phase P. aeruginosa

Guide cases for reduction of bacterial counts, stationary phase P. aeruginosa, answers given:
NC1CCN(c2c(F)cc3c(=O)c(C(=O)O)cn(C4CC4)c3c2Cl)C1 (centres unmarked)	more than four
N[C@@H]1CN(c2c(F)cc3c(=O)c(C(=O)O)cn([C@@H]4C[C@@H]4F)c3c2Cl)CC12CC2	more than four
Cc1oc(=O)oc1CN1CCN(c2cc3c(cc2F)c(=O)c(C(=O)O)c2n3C(C)S2)CC1 (centres unmarked)	more than four
CC[C@H]1OC(=O)[C@@](C)(F)C(=O)[C@H](C)[C@@H](O[C@@H]2O[C@H](C)C[C@H](N(C)C)[C@H]2O)[C@](C)(OC)C[C@@H](C)C(=O)[C@H](C)[C@H]2N(CCCCn3cc(-c4cccc(N)c4)nn3)C(=O)O[C@]12C	more than four

Now, please, on to the next compound.
Task: Consider the compound CC1Sc2c(C(=O)O)c(=O)c3cc(F)c(N4CCNCC4)cc3n21 (centres unmarked) . State its measured reduction of bacterial counts, stationary phase P. aeruginosa.
Output: more than four

----------
Hi there, I'd appreciate the recorded Regrowth, OD600 at 6h or 8h after dilution into drug-free medium for every entry that follows.
# Tested on: non-growing UPEC CFT073
# assay: Dilution-regrowth assay (screen, hit validation, dose-response) on stationary-phase UPEC
# Assay type: cell-based, Escherichia coli
# condition-description: E. coli in LPM (pH 5.5); concentration 10; average

Guide cases for Regrowth, OD600 at 6h or 8h after dilution into drug-free medium, answers given:
CO/N=C1\CN(c2nc3c(cc2F)c(=O)c(C(=O)O)cn3C2CC2)CC1CN (centres unmarked)	0.417
COc1c(N2C[C@@H]3CCCN[C@@H]3C2)c(F)cc2c(=O)c(C(=O)O)cn(C3CC3)c12	0.567
CC1COc2c(N3CCN(C)CC3)c(F)cc3c(=O)c(C(=O)O)cn1c23 (centres unmarked)	0.564

Could you tell me Regrowth, OD600 at 6h or 8h after dilution into drug-free medium for each of these compounds? They are listed below.
1. Cc1oc(=O)oc1CN1CCN(c2cc3c(cc2F)c(=O)c(C(=O)O)c2n3C(C)S2)CC1 (centres unmarked)
2. N[C@@H]1CCCCN(c2c(F)cc3c(=O)c(C(=O)O)cn(C4CC4)c3c2Cl)C1

Output:
[0.564, 0.531]

----------
# System: intracellular S. flexneri 5a M90T in TC7 cells
# assay: microbe, parasite or virus in culture
# Assay type: cell-based, Shigella flexneri
# condition-description: TC7 cells infected with GFP-expressing S. flexneri, 14 h treatment, 4 x MIC
measured-endpoint: Fluorescence intensity (RFU), Mean, 4 x MIC
Answers are plain numbers, in RFU.

Guide cases for Fluorescence intensity (RFU), Mean, 4 x MIC, answers given:
C[C@H]1NCc2cc(-c3ccc4c(=O)c(C(=O)O)cn(C5CC5)c4c3OC(F)F)ccc21 [Garenoxacin]	3336.42
CC[C@H]1OC(=O)[C@@](C)(F)C(=O)[C@H](C)[C@@H](O[C@@H]2O[C@H](C)C[C@H](N(C)C)[C@H]2O)[C@](C)(OC)C[C@@H](C)C(=O)[C@H](C)[C@H]2N(CCCCn3cc(-c4cccc(N)c4)nn3)C(=O)O[C@]12C [Solithromycin]	1560.69
CO/N=C1\CN(c2nc3c(cc2F)c(=O)c(C(=O)O)cn3C2CC2)CC1CN (centres unmarked) [Gemifloxacin]	3661.36
CC1COc2c(N3CCN(C)CC3)c(F)cc3c(=O)c(C(=O)O)cn1c23 (centres unmarked) [Ofloxacin]	3135.58

Task: Consider the compound C[C@@H]1CN(c2c(F)c(N)c3c(=O)c(C(=O)O)cn(C4CC4)c3c2F)C[C@H](C)N1 [Sparfloxacin] . State its measured Fluorescence intensity (RFU), Mean, 4 x MIC.
Output: 2375.69

----------
# Tested on: non-growing UPEC CFT073
# assay: Dilution-regrowth assay (screen, hit validation, dose-response) on stationary-phase UPEC
# Format: cell-based, Escherichia coli
# condition-description: E. coli in 1:4 CA-MHB (pH 7.4); drug concentration 30
measured-endpoint: Regrowth, OD600 at 6h or 8h after dilution into drug-free medium (average)

Guide cases for Regrowth, OD600 at 6h or 8h after dilution into drug-free medium (average), answers given:
[H]/N=C(\N/C(=N/[H])NCCCCCCNC(=N)NC(=N)Nc1ccc(Cl)cc1)Nc1ccc(Cl)cc1 [Chlorhexidine]	0.062
CCCCCCCCN=c1ccn(CCCCCCCCCCn2ccc(=NCCCCCCCC)cc2)cc1 [Octenidine]	0.074
CC(=O)[O][Pt]([NH2])([Cl])([Cl])([NH]C1CCCCC1)[O]C(C)=O [Satraplatin]	0.570
CCCCC(CC)CNC(=N)NC(=N)NCCCCCCNC(=N)NC(=N)NCC(CC)CCCC (centres unmarked) [Alexidine]	0.074

Now, please, on to the next compound.
Task: Consider the compound CO[C@@]12[C@H](COC(N)=O)C3=C(C(=O)C(C)=C(N)C3=O)N1C[C@@H]1N[C@@H]12 [Mitomycin C] . State its measured Regrowth, OD600 at 6h or 8h after dilution into drug-free medium (average).
Output: 0.063

----------
# System: non-growing S. aureus DSM2569
# assay: Dilution-regrowth assay (OD600, start-growth-time) on stationary-phase S. aureus
# Format: cell-based, Staphylococcus aureus
# condition-description: Staphylococcus aureus, DSM2569; S. aureus; regrowth delay of non-growing bacteria, 1:4 CA-MHB pH 7.4, 24 h treatment, OD600 8 h after dilution; read-out: EC50
Hi there, I'd appreciate the recorded EC50 for every entry that follows.
Numbers only, in µM.

CN1CCN(c2cc3c(cc2F)c(=O)c(C(=O)O)cn3-c2ccc(F)cc2)CC1	2.97
CCCCCCCCN=c1ccn(CCCCCCCCCCn2ccc(=NCCCCCCCC)cc2)cc1	3.3
CC1COc2c(N3CCN(C)CC3)c(F)cc3c(=O)c(C(=O)O)cn1c23 (stereo not shown)	14.3
NC1CCN(c2c(F)cc3c(=O)c(C(=O)O)cn(C4CC4)c3c2Cl)C1 (stereo not shown)	0.205
N[C@@H]1CCCCN(c2c(F)cc3c(=O)c(C(=O)O)cn(C4CC4)c3c2Cl)C1	0.401

Could you tell me EC50 for each of these compounds? They are listed below.
1. CO[C@H]1/C=C/O[C@@]2(C)Oc3c(C)c(O)c4c(c3C2=O)C2=NC3(CCN(CC(C)C)CC3)NC2=C(NC(=O)/C(C)=C\C=C\[C@H](C)[C@H](O)[C@@H](C)[C@@H](O)[C@@H](C)[C@H](OC(C)=O)[C@@H]1C)C4=O
2. CCCCC(CC)CNC(=N)NC(=N)NCCCCCCNC(=N)NC(=N)NCC(CC)CCCC (stereo not shown)

Output:
[0.032, 3.28]

----------
Hi there, I'd appreciate the recorded Regrowth, OD600 at 6h or 8h after dilution into drug-free medium (average) for every entry that follows.
# Test system: non-growing UPEC CFT073
# assay: Dilution-regrowth assay (screen, hit validation, dose-response) on stationary-phase UPEC
# Format: cell-based, Escherichia coli
# condition-description: E. coli in LPM (pH 5.5); drug concentration 5
Answers are plain numbers.

Guide cases for Regrowth, OD600 at 6h or 8h after dilution into drug-free medium (average), answers given:
[H]/N=C(\N/C(=N/[H])NCCCCCCNC(=N)NC(=N)Nc1ccc(Cl)cc1)Nc1ccc(Cl)cc1	0.621
CO[C@@]12[C@H](COC(N)=O)C3=C(C(=O)C(C)=C(N)C3=O)N1C[C@@H]1N[C@@H]12	0.136
CC(=O)[O][Pt]([NH2])([Cl])([Cl])([NH]C1CCCCC1)[O]C(C)=O	0.354

Now, please, on to the next compound.
Task: Answer with Regrowth, OD600 at 6h or 8h after dilution into drug-free medium (average) of CCCCC(CC)CNC(=N)NC(=N)NCCCCCCNC(=N)NC(=N)NCC(CC)CCCC (stereo not shown) measured for non-growing UPEC CFT073.
Output: 0.576

----------
# Tested on: non-growing UPEC CFT073
# assay: Dilution-regrowth assay (screen, hit validation, dose-response) on stationary-phase UPEC
# Format: cell-based, Escherichia coli
# condition-description: E. coli in LPM (pH 5.5); drug concentration 10
Threshold 0.1: Regrowth, OD600 at 6h or 8h after dilution into drug-free medium (average) strictly smaller gives met, otherwise not met.

# example entries with known answers
CO[C@@]12[C@H](COC(N)=O)C3=C(C(=O)C(C)=C(N)C3=O)N1C[C@@H]1N[C@@H]12	not met
[H]/N=C(\N/C(=N/[H])NCCCCCCNC(=N)NC(=N)Nc1ccc(Cl)cc1)Nc1ccc(Cl)cc1	not met
CCCCCCCCN=c1ccn(CCCCCCCCCCn2ccc(=NCCCCCCCC)cc2)cc1	met
CC(=O)[O][Pt]([NH2])([Cl])([Cl])([NH]C1CCCCC1)[O]C(C)=O	not met

Moving on to another compound below.
Task: API: query returns whether the compound falls strictly under 0.1 in Regrowth, OD600 at 6h or 8h after dilution into drug-free medium (average). Query: CCCCC(CC)CNC(=N)NC(=N)NCCCCCCNC(=N)NC(=N)NCC(CC)CCCC (centres unmarked)
Output: met
